# target-desc: Alpha-2A adrenergic receptor (Bos taurus, UniProt Q28838)
# Sequence (Q28838 whole entry): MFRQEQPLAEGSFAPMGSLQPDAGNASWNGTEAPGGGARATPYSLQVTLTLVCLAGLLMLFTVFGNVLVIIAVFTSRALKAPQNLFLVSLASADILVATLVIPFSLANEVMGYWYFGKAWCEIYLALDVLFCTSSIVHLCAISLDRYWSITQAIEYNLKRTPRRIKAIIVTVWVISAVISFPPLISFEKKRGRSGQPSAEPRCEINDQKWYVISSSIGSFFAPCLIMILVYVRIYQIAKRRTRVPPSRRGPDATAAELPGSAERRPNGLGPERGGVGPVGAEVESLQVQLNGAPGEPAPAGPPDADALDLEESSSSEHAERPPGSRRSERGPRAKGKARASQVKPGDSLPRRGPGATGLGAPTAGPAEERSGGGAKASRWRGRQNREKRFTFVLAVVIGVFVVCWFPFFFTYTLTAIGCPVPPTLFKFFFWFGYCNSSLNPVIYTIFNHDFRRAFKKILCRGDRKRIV
# method-notes: Affinity to alpha-2 adrenergic receptor by the displacement of [3H]clonidine from calf cerebral cortex membranes
# Assay type: tissue-based
quantity-kind: pKi
For clarity, pKi is expressed as the negative log10 of concentration in mol/L.

>>> print(df.to_string())
                                   compound                               target_desc  quantity_kind  quantitative_result
0  c1ccc2c3c(oc2c1)C1CCCCN1CC3 (configuration not stated)  Alpha-2A adrenergic receptor (Bos taurus, UniProt Q28838)            pKi                 7.79
1  c1ccc2c3c(sc2c1)C1CCCCN1CC3 (configuration not stated)  Alpha-2A adrenergic receptor (Bos taurus, UniProt Q28838)            pKi                 8.37
2  Nc1nc2c(s1)CCN1CCCCC21 (configuration not stated)  Alpha-2A adrenergic receptor (Bos taurus, UniProt Q28838)            pKi                 6.46
3  c1[nH]nc2c1CCN1CCCCC21 (configuration not stated)  Alpha-2A adrenergic receptor (Bos taurus, UniProt Q28838)            pKi                 5.02
4  c1cnc2c(c1)CCN1CCCCC21 (configuration not stated)  Alpha-2A adrenergic receptor (Bos taurus, UniProt Q28838)            pKi                 5.70
5  c1cnc2[nH]c3c(c2c1)CCN1CCCCC31 (configuration not stated)  Alpha-2A adrenergic receptor (Bos taurus, UniProt Q28838)            pKi                 6.18

Now for another entry.
Request: With Alpha-2A adrenergic receptor (Bos taurus, UniProt Q28838) as the test system, provide measured pKi for this compound: c1cc2c(s1)C1CCCCN1CC2 (configuration not stated)
Result: 6.71

* * *

# method-notes: Selectivity expressed as the ratio of Ki of [3H]prazosin to Ki of [3H]-clonidine
Selectivity strictly less than 6 = t. Otherwise f.

In [3]: df
Out[3]:
                                   molecule  group_label
0  c1ccc2c3c(oc2c1)C1CCCCN1CC3 (configuration not stated)            f

Request: Is it true that Selectivity reported for c1[nH]nc2c1CCN1CCCCC21 (configuration not stated) is less than 6?
Result: t

* * *

Parameter Ki: see the listing below.
# target-desc: Alpha-2A adrenergic receptor (Bos taurus)
# Sequence (Q28838 whole entry): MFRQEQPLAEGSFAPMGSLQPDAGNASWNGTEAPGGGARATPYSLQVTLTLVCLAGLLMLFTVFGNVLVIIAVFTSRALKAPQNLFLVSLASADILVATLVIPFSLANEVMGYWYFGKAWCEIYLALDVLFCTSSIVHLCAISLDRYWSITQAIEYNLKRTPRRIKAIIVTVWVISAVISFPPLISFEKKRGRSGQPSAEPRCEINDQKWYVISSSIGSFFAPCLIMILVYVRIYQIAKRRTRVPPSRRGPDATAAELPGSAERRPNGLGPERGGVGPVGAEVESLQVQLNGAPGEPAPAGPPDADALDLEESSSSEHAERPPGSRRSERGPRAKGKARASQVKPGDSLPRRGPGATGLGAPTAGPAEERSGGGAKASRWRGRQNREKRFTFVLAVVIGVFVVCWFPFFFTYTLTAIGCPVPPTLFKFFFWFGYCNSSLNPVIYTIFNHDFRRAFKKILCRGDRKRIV
# method-notes: Compound was evaluated for log 1/Ki at alpha-2 adrenergic receptor
# experimental-conditions: read-out: Log 1/Ki (converted)
# value in nM; strip the unit string

Worked examples follow.
In [3]: df
Out[3]:
                                   compound                               target_desc  unit_text  quantitative_result
0  c1ccc2c3c(sc2c1)C1CCCCN1CC3 (configuration not stated)  Alpha-2A adrenergic receptor (Bos taurus)         nM                 4.27
1  c1cnc2[nH]c3c(c2c1)CCN1CCCCC31 (configuration not stated)  Alpha-2A adrenergic receptor (Bos taurus)         nM                  661
2  c1[nH]nc2c1CCN1CCCCC21 (configuration not stated)  Alpha-2A adrenergic receptor (Bos taurus)         nM                 9550

Request: Give the reported value of Ki for this record: c1cc2c(s1)C1CCCCN1CC2 (configuration not stated)
Result: 195

Request: Give the reported value of Ki for this record: c1ccc2c3c(oc2c1)C1CCCCN1CC3 (configuration not stated)
Result: 16.2

Request: Give the reported value of Ki for this record: c1cnc2c(c1)CCN1CCCCC21 (configuration not stated)
Result: 2000

Request: Give the reported value of Ki for this record: Nc1nc2c(s1)CCN1CCCCC21 (configuration not stated)
Result: 347

* * *

# target-desc: Alpha-1A adrenergic receptor (Bos taurus, UniProt P18130)
# Sequence (P18130 whole entry): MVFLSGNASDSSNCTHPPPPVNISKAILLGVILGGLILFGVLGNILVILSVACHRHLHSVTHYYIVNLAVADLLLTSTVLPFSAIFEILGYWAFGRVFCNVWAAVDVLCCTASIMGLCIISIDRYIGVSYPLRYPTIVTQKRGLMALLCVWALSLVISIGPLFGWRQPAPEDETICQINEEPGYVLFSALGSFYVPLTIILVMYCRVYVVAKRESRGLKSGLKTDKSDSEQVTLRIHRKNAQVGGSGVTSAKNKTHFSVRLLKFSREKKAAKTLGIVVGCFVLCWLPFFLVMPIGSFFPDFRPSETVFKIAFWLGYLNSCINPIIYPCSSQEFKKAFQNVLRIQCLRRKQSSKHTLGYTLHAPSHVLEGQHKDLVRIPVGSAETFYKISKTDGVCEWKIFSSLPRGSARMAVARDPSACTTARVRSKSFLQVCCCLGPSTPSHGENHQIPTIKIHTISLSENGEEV
# method-notes: Affinity to alpha-1 adrenergic receptor by the displacement of [3H]-prazosin from calf cerebral cortex membranes
# Type: tissue-based
quantity-kind: pKi
For clarity, pKi is expressed as the negative log10 of concentration in mol/L.

                                   compound  quantity_kind  quantitative_result
0  c1cc2c(s1)C1CCCCN1CC2 (configuration not stated)            pKi                 5.96
1  c1ccc2c3c(sc2c1)C1CCCCN1CC3 (configuration not stated)            pKi                 7.79
2  c1[nH]nc2c1CCN1CCCCC21 (configuration not stated)            pKi                 4.62

Request: With Alpha-1A adrenergic receptor (Bos taurus, UniProt P18130) as the test system, provide measured pKi for this compound: Nc1nc2c(s1)CCN1CCCCC21 (configuration not stated)
Result: 5.55

Request: With Alpha-1A adrenergic receptor (Bos taurus, UniProt P18130) as the test system, provide measured pKi for this compound: c1cnc2[nH]c3c(c2c1)CCN1CCCCC31 (configuration not stated)
Result: 6.27

Request: With Alpha-1A adrenergic receptor (Bos taurus, UniProt P18130) as the test system, provide measured pKi for this compound: c1ccc2c3c(oc2c1)C1CCCCN1CC3 (configuration not stated)
Result: 6.96

Request: With Alpha-1A adrenergic receptor (Bos taurus, UniProt P18130) as the test system, provide measured pKi for this compound: c1cnc2c(c1)CCN1CCCCC21 (configuration not stated)
Result: 5.49

* * *

# method-notes: Partition coefficient (logD) (octanol/phosphate buffer)
# Assay type: physicochemical
quantity-kind: logD

Worked examples follow.
                                   compound  result
0  c1cc2c(s1)C1CCCCN1CC2 (stereo not drawn)    1.51
1  c1ccc2c3c(sc2c1)C1CCCCN1CC3 (stereo not drawn)    2.09
2  c1cnc2[nH]c3c(c2c1)CCN1CCCCC31 (stereo not drawn)    0.16
3  c1ccc2c3c(oc2c1)C1CCCCN1CC3 (stereo not drawn)     1.8
4  c1ccc2c3c([nH]c2c1)C1CCCCN1CC3 (stereo not drawn)    1.83

Request: Give the reported value of logD for this record: c1cnc2c(c1)CCN1CCCCC21 (stereo not drawn)
Result: 0.39

Request: Give the reported value of logD for this record: Nc1nc2c(s1)CCN1CCCCC21 (stereo not drawn)
Result: 0.39

Request: Give the reported value of logD for this record: c1[nH]nc2c1CCN1CCCCC21 (stereo not drawn)
Result: 0.16

* * *

# target-desc: Alpha-1A adrenergic receptor (Bos taurus, UniProt P18130)
# method-notes: Compound was evaluated for log 1/Ki at alpha-1 adrenergic receptor
# experimental-conditions: read-out: Log 1/Ki (converted)
Ki strictly less than 1 µM = yes (1). Otherwise no (0).

Use the examples below as a reference point.
>>> print(df.to_string())
                                   molecule  group_label
0  c1cnc2c(c1)CCN1CCCCC21 (configuration not stated)       no (0)
1  c1ccc2c3c(oc2c1)C1CCCCN1CC3 (configuration not stated)      yes (1)
2  c1cnc2[nH]c3c(c2c1)CCN1CCCCC31 (configuration not stated)      yes (1)
3  c1cc2c(s1)C1CCCCN1CC2 (configuration not stated)       no (0)
4  c1[nH]nc2c1CCN1CCCCC21 (configuration not stated)       no (0)
5  Nc1nc2c(s1)CCN1CCCCC21 (configuration not stated)       no (0)

Query molecule follows.
Request: Is it true that Ki reported for c1ccc2c3c(sc2c1)C1CCCCN1CC3 (configuration not stated) is less than 1 µM?
Result: yes (1)
